Source of measurements: paper PMC4434323

- assayed-system: ZK337.2 (ZK337.2) (Caenorhabditis elegans)
- Sequence: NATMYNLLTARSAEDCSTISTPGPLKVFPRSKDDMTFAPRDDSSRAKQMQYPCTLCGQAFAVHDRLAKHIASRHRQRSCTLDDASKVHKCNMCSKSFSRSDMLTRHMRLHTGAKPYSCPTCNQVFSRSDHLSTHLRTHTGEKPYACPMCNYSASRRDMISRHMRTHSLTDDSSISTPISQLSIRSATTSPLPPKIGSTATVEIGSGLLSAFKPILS
measured-metric: binding signal (PBM E-score (-0.5 to 0.5))
Field format: numeric only.

Challenge: Query (sequence): CGCCCCCG (double strand) [8-mer CGCCCCCG] ; field requested: binding signal (PBM E-score (-0.5 to 0.5))
Response given: 0.49

Challenge: Consider the sequence GCCCCCGC (double strand) [8-mer GCCCCCGC] and give its measured binding signal (PBM E-score (-0.5 to 0.5)).
Response given: 0.489

Challenge: Please look up its binding signal (PBM E-score (-0.5 to 0.5)): CCCCCGCA (double strand) [8-mer CCCCCGCA]
Response given: 0.494

Challenge: Can you look up the measured binding signal (PBM E-score (-0.5 to 0.5)) of CGCCCACA (double strand) [8-mer CGCCCACA] for me?
Response given: 0.484

Challenge: Would you kindly share the measured binding signal (PBM E-score (-0.5 to 0.5)) for CCGCCCAC (double strand) [8-mer CCGCCCAC] ?
Response given: 0.494

Challenge: Need binding signal (PBM E-score (-0.5 to 0.5)), item CACCCACG (double strand) [8-mer CACCCACG]
Response given: 0.484

Challenge: Given the sequence CCGCCCCC (double strand) [8-mer CCGCCCCC] , what is its reported binding signal (PBM E-score (-0.5 to 0.5))?
Response given: 0.495

###

- assayed-system: M03D4.4 (M03D4.4) (Caenorhabditis elegans) (UniProt Q21494)
- Sequence: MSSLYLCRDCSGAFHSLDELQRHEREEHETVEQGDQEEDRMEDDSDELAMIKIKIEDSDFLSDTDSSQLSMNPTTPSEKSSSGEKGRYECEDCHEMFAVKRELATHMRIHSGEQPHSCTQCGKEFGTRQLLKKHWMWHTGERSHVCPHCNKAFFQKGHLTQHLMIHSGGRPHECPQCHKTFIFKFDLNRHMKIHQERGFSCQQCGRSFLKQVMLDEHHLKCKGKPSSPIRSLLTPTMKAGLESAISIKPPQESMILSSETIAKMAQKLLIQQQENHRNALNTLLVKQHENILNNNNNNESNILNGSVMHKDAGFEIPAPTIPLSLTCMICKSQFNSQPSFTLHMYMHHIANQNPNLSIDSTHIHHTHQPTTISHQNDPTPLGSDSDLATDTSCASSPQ
measured-metric: binding signal (PBM E-score (-0.5 to 0.5))
Number only, please.

// solved cases for binding signal (PBM E-score (-0.5 to 0.5)) follow
TCATGCAA (double strand) [8-mer TCATGCAA]; 0.493
AATGCATG (double strand) [8-mer AATGCATG]; 0.494
ACATGCAT (double strand) [8-mer ACATGCAT]; 0.491

Challenge: Endpoint output: binding signal (PBM E-score (-0.5 to 0.5)) of GTCATGCA (double strand) [8-mer GTCATGCA] . Value?
Response given: 0.495

Challenge: # query: binding signal (PBM E-score (-0.5 to 0.5)) of entry GCATGGAA (double strand) [8-mer GCATGGAA]
Response given: 0.491

Challenge: Form field: reported binding signal (PBM E-score (-0.5 to 0.5)) of CGCATGAA (double strand) [8-mer CGCATGAA]
Response given: 0.491
